Listed compounds paired with reported IC50
- Test system: KB
- experimental.details: Antitumor activity against KB cells by MTT assay
- Type: functional, cell-based
- measurement.setup: Homo sapiens
readout: IC50

INSERT INTO measurements (compound, readout, experimental_result) VALUES
  ('COC(=O)/C=C/c1ccc(O)cc1 [METHYL P-HYDROXYCINNAMATE]', 'IC50', '123 µM'),
  ('C=C=CCOc1ccc(/C=C/C(=O)OC)cc1OC', 'IC50', '17.4 µM'),
  ('COC(=O)c1ccc(O)cc1', 'IC50', '> 200 µM'),
  ('COC(=O)C1(NC(=O)/C=C/c2ccc(O)cc2)CC1', 'IC50', '> 200 µM'),
  ('O=C(/C=C/c1ccc(O)c(O)c1)OC1C[C@@](O)(C(=O)O)C[C@H](O)[C@@H]1O (some centres undefined)', 'IC50', '> 200 µM'),
  ('C=C=CCO', 'IC50', '> 200 µM'),
  ('O=C(O)c1ccc(O)cc1', 'IC50', '> 200 µM'),
  ('COC(=O)/C=C/c1ccc(O)c(OC)c1', 'IC50', '> 200 µM'),
  ('C=C=CCOc1ccc(/C=C/C(=O)OC)cc1O', 'IC50', '29.4 µM'),
  ('COC(=O)C1(N)CC1', 'IC50', '135 µM'),
  ('C=C=CCOc1ccc(COc2ccc(C(=O)OC)cc2)cc1', 'IC50', '75.4 µM'),
  ('OCc1ccc(O)cc1 [PARAHYDROXYBENZYL ALCOHOL]', 'IC50', '> 200 µM'),
  ('C=C=CCOc1ccc(/C=C/C(=O)O)cc1', 'IC50', '71.5 µM'),
  ('C=C=CCBr', 'IC50', '> 200 µM'),
  ('O=C(O)/C=C/c1ccc(O)cc1', 'IC50', '> 200 µM'),
  ('COC(=O)/C=C/c1ccc(O)c(O)c1 [METHYLCAFFEATE]', 'IC50', '> 200 µM'),
  ('C=C=CCOc1ccc(COc2ccc(/C=C/C(=O)OC)cc2)cc1', 'IC50', '48.8 µM'),
  ('C=C=CCOc1ccc(/C=C/C(=O)NC2(C(=O)OC)CC2)cc1', 'IC50', '48.1 µM'),
  ('C=C=CCOc1ccc(C(=O)O)cc1', 'IC50', '40.6 µM'),
  ('C=C=CCOC(=O)[C@]1(O)CC(OC(=O)/C=C/c2ccc(OCC=C=C)c(O)c2)[C@@H](O)[C@@H](O)C1 (some centres undefined)', 'IC50', '53.1 µM'),
  ('C=C=CCOc1ccc(/C=C/C(=O)OC)cc1', 'IC50', '27.6 µM'),
  ('C=C=CCOc1ccc(COc2ccc(/C=C/C(=O)OC)cc2OC)cc1', 'IC50', '34.6 µM'),
  ('C=C=CCOc1ccc(CO)cc1', 'IC50', '74.5 µM'),
  ('C=C=CCOc1ccc(C(=O)OC)cc1', 'IC50', '22.5 µM');
